Assign IC50 to each entry below.
test system: human colon cancer HT-29 cells; assay: Inhibitory action on the proliferation of HT-29 cells; assay type: cell-based; conditions: Homo sapiens, HT-29; 96 hours culture, TetraColor ONE
The reply should contain only the number, in µg/mL.

Known value: human colon cancer HT-29 cells IC50 of the compound Cl.Oc1ccc2c3c(c4cc5c(cc4c2c1)OCO5)CN1CCC[C@H]1[C@H]3O equals 0.0469

Known value: human colon cancer HT-29 cells IC50 of the compound COc1cc2c3c(c4ccc(O)cc4c2c(OC)c1OC)[C@H](O)[C@@H]1CCCN1C3.Cl equals 0.637

Known value: human colon cancer HT-29 cells IC50 of the compound COc1cc2c3c(c4ccc(O)cc4c2cc1OC)CN1CCC[C@H]1[C@H]3O.Cl equals 0.0566

Known value: human colon cancer HT-29 cells IC50 of the compound COc1cc2c3c(c4ccc(O)cc4c2c(OC)c1OC)[C@@H](O)[C@H]1CCCN1C3.Cl equals 0.0047
